Listing of entries alongside the reported IC50.
- Target under test: rat TRPA1 (Rattus norvegicus)
- Construct: expressed in transfected cells; host or cells: HEK-293
- Sequence (Q6RI86 whole entry): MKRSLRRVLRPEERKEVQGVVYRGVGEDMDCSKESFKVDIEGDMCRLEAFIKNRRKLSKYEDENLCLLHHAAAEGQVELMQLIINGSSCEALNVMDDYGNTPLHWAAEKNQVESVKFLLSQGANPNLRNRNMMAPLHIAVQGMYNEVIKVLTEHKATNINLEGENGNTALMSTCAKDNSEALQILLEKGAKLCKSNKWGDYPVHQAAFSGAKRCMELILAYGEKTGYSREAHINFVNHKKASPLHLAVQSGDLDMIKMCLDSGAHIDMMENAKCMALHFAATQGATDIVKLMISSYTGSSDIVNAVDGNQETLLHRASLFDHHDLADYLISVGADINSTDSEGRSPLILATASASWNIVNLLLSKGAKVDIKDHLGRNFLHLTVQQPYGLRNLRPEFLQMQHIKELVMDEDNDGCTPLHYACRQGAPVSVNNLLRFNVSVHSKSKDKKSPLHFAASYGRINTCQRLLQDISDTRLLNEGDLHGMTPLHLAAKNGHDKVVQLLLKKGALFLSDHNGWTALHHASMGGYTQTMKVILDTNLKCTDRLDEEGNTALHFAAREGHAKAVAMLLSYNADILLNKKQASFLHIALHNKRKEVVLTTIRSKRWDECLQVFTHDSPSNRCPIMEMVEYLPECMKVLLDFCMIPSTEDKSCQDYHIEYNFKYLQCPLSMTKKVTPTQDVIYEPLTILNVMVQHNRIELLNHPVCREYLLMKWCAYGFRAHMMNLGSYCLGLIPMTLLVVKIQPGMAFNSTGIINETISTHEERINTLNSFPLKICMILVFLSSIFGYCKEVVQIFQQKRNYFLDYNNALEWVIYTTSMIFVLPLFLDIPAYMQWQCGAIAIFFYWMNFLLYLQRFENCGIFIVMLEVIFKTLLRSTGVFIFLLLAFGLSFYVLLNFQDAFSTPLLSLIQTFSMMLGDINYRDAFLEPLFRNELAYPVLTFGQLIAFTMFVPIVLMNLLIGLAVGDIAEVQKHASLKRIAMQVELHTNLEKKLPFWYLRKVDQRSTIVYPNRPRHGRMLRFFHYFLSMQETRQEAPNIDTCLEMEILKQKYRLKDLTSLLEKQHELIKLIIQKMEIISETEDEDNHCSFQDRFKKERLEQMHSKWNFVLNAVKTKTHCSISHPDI
- Method description: TRPA1-mediated elevation of intracellular Ca2+ (Fluo-4) in transfected HEK-293 cells
- Format: cell-based
- Experimental context: antagonist/desensitizing; compound added 5 min before agonist AITC 100 μM; read-out: IC50 TRPA1

Molecule: CCCCCCCc1cc(O)c2c(c1)OC(C)(CCC=C(C)C)C=C2 (stereo not shown) [8c, Depentyl-5-n-heptylcannabichromene]
IC50, µM: 3.8
//
Molecule: C=C(C)[C@@H]1CCC(C)=C[C@H]1c1c(O)cc(C(C)(C)CCCCCC)cc1O [1b, Depentyl-α,α-dimethylheptyl-cannabidiol]
IC50, µM: 0.51
//
Molecule: CCCCC(C)(C)c1cc(O)c2c(c1)OC(C)(CCC=C(C)C)C=C2 (stereo not shown) [8d]
IC50, µM: 0.4
//
Molecule: CCCCCCC(C)(C)c1cc(O)c(C/C=C(\C)CCC=C(C)C)c(O)c1 [7b, Depentyl-α,α-dimethylheptyl-cannabigerol]
IC50, µM: 1.7

Numbers sourced from paper PMC8391922.
